METHOD: calcein-AM signal in unstimulated myeloma cells – cell-based, calcein-AM fluorescence, 48 h, PK04 Diversity Set, profiling panel (AID 1166);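 note: cells grown under basal conditions without added stimulus; test concentration not given here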
CONDITION_SET: RPMI8226 myeloma viability, higher = more signal

{"columns": ["MOLECULE", "z-score"],
 "data": [
  ["CCOC(=O)N1C(c2ccc(OCCCO)cc2)=NC(C(=O)OC)N1C(=O)OCC (stereo not drawn)", 0.732],
  ["C=CCN1C(=O)[C@]2(Cc3ccccc31)N=C(c1ccc(OCCCO)cc1)O[C@@H]2c1ccccc1", -3.41],
  ["CCOC(=O)C1=CC[C@@H](c2cccc(Cl)c2)N(S(=O)(=O)c2ccc(C)cc2)[C@H]1c1ccc(C#N)cc1", -0.704],
  ["CCCCCCC#C[Si](O[C@H](c1ccccc1)c1cn([C@H](C)c2ccccc2)nn1)(C(C)C)C(C)C", 0.0204],
  ["COC(=O)[C@@]1(Cc2ccc(F)cc2)[C@H]2c3cc(C(=O)N(C)C)n(CCCNc4ccc(C(F)(F)F)cc4Cl)c3C[C@H]2CN1C(=O)c1ccccc1", -4.32],
  ["C=C[C@H](C)[C@H](OC(=O)Nc1ccc(OC)cc1)c1ccc(O)c2ccccc12", -4.25],
  ["O=C(CS)NCCCCCNC(=O)[C@H]1C[C@H]2C(=O)N[C@@H](Cc3ccccc3)C(=O)N2[C@H]1c1cccc(OCCO)c1", -0.156],
  ["CCCC[C@H]1OB(O)C[C@H]2C1=C(C)Cn1c(=O)n(-c3ccccc3)c(=O)n12", -0.108]
]}

* * *

METHOD: inhibition of PAO1 biofilm formation – strain PAO1, LB-PBS medium, absorbance 600 nm, primary screen (AID 1176); note: test concentration not given here
CONDITION_SET: P. aeruginosa PAO1 growth/biofilm, A600, 12 h; higher = more signal

{"columns": ["MOLECULE", "z-score"],
 "data": [
  ["O=C1C2C=CC(C(O)c3cccc4ccccc34)N(n3cnnc3)C2C(=O)N1Cc1ccccc1 (configuration not stated)", -0.128],
  ["COc1ccc(C(O)C2C=CC3C(=O)N(c4ccccc4)C(=O)C3N2Nc2ccccc2)c2ccccc12 (configuration not stated)", 1.48],
  ["C/C=C/[C@H](CCn1cc([C@H](O)c2ccccc2)nn1)[Si](C)(C)c1ccc(OC)cc1", 0.626],
  ["O=C(NCc1ccccc1)[C@@H]1c2ccccc2C(=O)N(Cc2cc(F)cc(C(F)(F)F)c2)[C@H]1c1ccc(CO)cc1", 0.472],
  ["C=CCOC(=O)[C@H]1[C@@H]2C(=O)O[C@@H](c3ccccc3)[C@@H](c3ccccc3)N2[C@@H](c2ccc(OCCOC(=O)[C@H]3C[C@H]4C(=O)N[C@@H](CCCC[N+](C)(C)C)C(=O)N4[C@H]3c3ccc(O)cc3)cc2)[C@]12C(=O)Nc1ccccc12", -0.723],
  ["COc1ccc([Si](C)(C)[C@@H]2[C@@H](CCn3cc([C@H](O)c4ccccc4)nn3)O[C@]3(C(=O)N(C)c4ccccc43)[C@H]2C)cc1", 0.119],
  ["CCOC(=O)C[C@H]1[C@H](OC(=O)c2cc3ccccc3oc2=O)[C@@H](NC(=O)c2ccc3ccccc3c2)c2cc(OCCCO)ccc2N1C(=O)c1ccccc1", -0.647]
]}

* * *

METHOD: probe aLefty1 binding on compound microarray – biochemical, small-molecule microarray, 635/667 nm fluorescence, primary screen (AID 1153);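 note: score merges spot fluorescence with signal-to-noise ratio from the scanned slide images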
CONDITION_SET: higher = more signal
Listing: composite z-score of selected molecules
EXPERIMENTAL_ENDPOINT: composite z-score

{"columns": ["MOLECULE", "EXPERIMENTAL_ENDPOINT", "NUMBER"],
 "data": [
  ["NC(=O)NCC#Cc1ccc2c(c1)[C@]1(C(=O)N2)[C@H](c2ccccc2OCCO)N2[C@H](c3ccccc3)[C@H](c3ccccc3)OC(=O)[C@H]2[C@@H]1C(=O)N1CCCCCCC1", "composite z-score", 2.71],
  ["[N-]=[N+]=NCc1ccccc1[C@@H]1OC(c2ccc(OCCCO)cc2)=N[C@]1(Cc1ccccc1)C(=O)O", "composite z-score", 0.0429],
  ["COc1ccc([Si](C)(C)[C@@H]2[C@@H](CC(=O)N3Cc4ccccc4C[C@H]3CO)O[C@]3(C(=O)N(Cc4cccc(N5C(=O)COc6ccccc65)c4)c4ccccc43)[C@H]2C)cc1", "composite z-score", -0.286],
  ["COCC1=C([C@H](O)CCc2ccccc2)[C@H](CO)[C@@H]2C(=O)N(Cc3ccccc3)C(=O)[C@@H]2C1", "composite z-score", -0.194],
  ["CCN(CC)c1ccc(N2CC=CC34O[C@@H]5/C=C\\CCC(C)OC(=O)C5[C@H]3C(=O)N(CCCCCCO)[C@@H]4C2=O)cc1 (some centres not stated)", "composite z-score", -0.464],
  ["[N-]=[N+]=NCc1ccccc1C[C@]1(C(N)=O)N=C(c2ccc(OCCCO)cc2)O[C@H]1c1ccccc1N=[N+]=[N-]", "composite z-score", 0.588],
  ["CN(C)CCCCCCNC(=O)[C@@H]1C[C@@H]2C(=O)NCC(=O)N2[C@@H]1c1cccc(OCCO)c1", "composite z-score", 0.169]
]}

* * *

METHOD: blockers of DNA damage checkpoint Chk1 activation – imaging, HeLa, hydroxyurea, phospho-Chk1 nuclear intensity, primary screen (AID 1187); note: test concentration not given here
CONDITION_SET: hydroxyurea-induced phospho-Chk1 immunofluorescence imaging, higher = more signal
Activity calls are given as the source filed them. How the calls were made is not given here.

{"columns": ["MOLECULE", "z-score"],
 "data": [
  ["C=C(COC)C(=O)CC[C@H](OC(=O)c1cccnc1)c1ccccc1OCCO", "0.565 (inactive)"],
  ["CCCCN1CC=CC23O[C@@H]4C=CCCOC(=O)C4[C@H]2C(=O)N(CCCO)[C@@H]3C1=O (stereo partly drawn)", "-0.559 (inactive)"],
  ["COC(=O)[C@@]1(Cc2ccccc2)[C@H]2c3cc(C(=O)N(C)C)n(Cc4ccccc4)c3C[C@H]2CN1C(=O)c1ccccc1", "0.928 (inactive)"],
  ["COCCCNC(=O)[C@@]1(Cc2ccccc2I)c2ccccc2C(=O)N(Cc2ccccc2)[C@H]1c1ccc(CO)cc1", "0.371 (inactive)"],
  ["C=C(C(=O)CC[C@@H](OC(=O)c1cccnc1)c1ccc(CO)o1)C(C)C", "0.501 (inactive)"],
  ["Cn1c2c(c3ccccc31)C(=O)C1NC2C=CC1(C)C(=O)OCc1ccccc1 (stereo not drawn)", "-0.512 (inactive)"],
  ["COC(=O)[C@@]1(Cc2ccc(F)cc2)[C@H]2c3cc(C(=O)N4CCCC4)n(CCc4ccc(OC)c(Br)c4)c3C[C@H]2CN1C(=O)c1ccccc1", "-0.872 (inactive)"],
  ["O=C(NCc1ccccc1)[C@@H]1c2ccccc2C(=O)N(Cc2cc(F)cc(C(F)(F)F)c2)[C@H]1c1ccc(CO)cc1", "-1.29 (inactive)"]
]}

* * *

Here, each record is paired with measured composite z-score data.
METHOD: probe aCHRDL2 binding to arrayed compounds – biochemical, biotinylated probe, 635/667 nm fluorescence, primary screen (AID 1100)
CONDITION_SET: small-molecule microarray, higher = more signal
EXPERIMENTAL_ENDPOINT: composite z-score

{"columns": ["COMPOUND", "NUMBER"],
 "data": [
  ["O=c1cccc(-c2ccc3ccccc3c2)o1", 0.591],
  ["COCC1C2CC[C@H]3C(OCc4ccc(F)cc4C(F)(F)F)OC[C@]4(C)[C@H]3C2=C(CN4C(=O)OC(C)(C)C)[C@H](C)C1COC (stereo not given in full)", 1.23],
  ["CC(C)N1C(=O)c2ccccc2[C@](C)(C(=O)NC2CC2)[C@@H]1c1ccc(CO)cc1", 0.151],
  ["COC(=O)[C@@]1(Cc2ccc(OC)cc2)[C@H]2c3cc(C(=O)N(C)C)n(CCSCCO)c3C[C@H]2CN1C(=O)c1ccccc1", 1.16],
  ["COC(=O)[C@@]1(Cc2ccc(OC)cc2)[C@H]2c3cc(C(=O)N4CCCC4)n(C[C@H](O)CO)c3C[C@H]2CN1C(=O)c1ccccc1", 0.913],
  ["Cc1ccc(N2C(=O)c3ccccc3[C@@H](C(=O)NC(C)C)[C@@H]2c2ccc(CO)cc2)nc1", 0.61],
  ["CCOC(=O)C[C@H]1[C@H](OC(=O)c2cc3ccccc3oc2=O)[C@@H](NC(=O)c2ccc3ccccc3c2)c2cc(OCCCO)ccc2N1C(=O)c1ccccc1", -0.413],
  ["CO[C@H]1O[C@H](CO)[C@@H](OC(=O)Nc2cccc(F)c2)[C@H](OC(=O)Nc2ccccc2-c2ccccc2)[C@@H]1OC(=O)Nc1ccccc1-c1ccccc1", 0.74],
  ["O=C1C2C=CC(C(O)c3ccc(-c4ccccc4)s3)N(Nc3ccccc3F)C2C(=O)N1c1ccccc1 (stereo not given)", 1.27],
  ["O=C1O[C@@H](c2ccccc2)[C@@H](c2ccccc2)N2[C@@H](c3ccc(O)cc3)[C@]3(C(=O)Nc4ccccc43)[C@@H](C(=O)NC[C@H](O)c3ccccc3)[C@H]12", 0.0547],
  ["O=C1O[C@@H](c2ccccc2)[C@@H](c2ccccc2)N2[C@@H](c3ccc(O)cc3)[C@]3(C(=O)Nc4ccc(C#CCCO)cc43)[C@@H](C(=O)O)[C@H]12", 1.64],
  ["CCCC[C@@H]1C[C@H]1[C@@H](NC(=O)c1ccccc1)c1ccccc1", 0.781],
  ["CN(C)CCCC[C@@H]1NC(=O)[C@H]2C[C@@H](C(=O)NCCCCCNC(=O)CS)[C@@H](c3ccc(O)cc3)N2C1=O", 0.308],
  ["COc1cc(NN2C(C(O)c3ccccc3)C=CC3C(=O)N(c4ccccc4)C(=O)C32)cc(OC)c1OC (stereo not given)", 0.862],
  ["CC(C)[C@H]1COC(=O)N1C(=O)[C@H]1[C@@H](c2ccccc2)N(c2ccccc2)O[C@@H]1C", -0.273]
]}
